Target: D(3) dopamine receptor (Homo sapiens, UniProt P35462)
Sequence (P35462 whole entry): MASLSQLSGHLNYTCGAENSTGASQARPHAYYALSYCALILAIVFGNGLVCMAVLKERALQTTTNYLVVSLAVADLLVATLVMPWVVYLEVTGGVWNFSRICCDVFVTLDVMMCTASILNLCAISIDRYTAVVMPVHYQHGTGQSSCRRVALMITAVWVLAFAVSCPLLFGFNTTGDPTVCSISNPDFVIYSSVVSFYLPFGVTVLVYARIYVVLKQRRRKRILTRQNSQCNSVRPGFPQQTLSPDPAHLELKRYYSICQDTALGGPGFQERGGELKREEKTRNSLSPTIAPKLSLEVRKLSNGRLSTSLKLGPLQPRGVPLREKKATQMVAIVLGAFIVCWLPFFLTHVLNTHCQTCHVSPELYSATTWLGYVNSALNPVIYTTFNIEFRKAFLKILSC
Below: a set of entries, each annotated with reported Ki.
recorded endpoint: Ki (µM)

- compound: "OC(CNC1CCN(CCSC(c2ccc(F)cc2)c2ccc(F)cc2)CC1)Cc1ccccc1 (centres undefined)"
  result unit: "µM"
  test value: 0.701
- compound: "CC(C)(C)C(=O)N1CCC(NCCSC(c2ccc(F)cc2)c2ccc(F)cc2)CC1"
  result unit: "µM"
  test value: 3.42
- compound: "CC(O)CN1[C@H](C)CN(CCSC(c2ccc(F)cc2)c2ccc(F)cc2)C[C@@H]1C (some centres undefined)"
  result unit: "µM"
  test value: 1.47
- compound: "O=C(c1ccc(F)cc1)N1CCC(NCCSC(c2ccc(F)cc2)c2ccc(F)cc2)CC1"
  result unit: "µM"
  test value: 5.23
- compound: "[O-][S+](CCNC1CCN(Cc2ccc(F)cc2)CC1)C(c1ccc(F)cc1)c1ccc(F)cc1 (centres undefined)"
  result unit: "µM"
  test value: 12.4
- compound: "Fc1ccc(CN2CCC(NCCSC(c3ccc(F)cc3)c3ccc(F)cc3)CC2)cc1"
  result unit: "µM"
  test value: 0.911
- compound: "O=C(c1ccc(F)cc1)N1CCC(NCC[S+]([O-])C(c2ccc(F)cc2)c2ccc(F)cc2)CC1 (centres undefined)"
  result unit: "µM"
  test value: 28.2
- compound: "NC(=O)C[S+]([O-])C(c1ccccc1)c1ccccc1 (racemic) [MODAFINIL]"
  result unit: "µM"
  test value: 39
- compound: "OC(Cc1ccccc1)CN1CCC(NCCSC(c2ccc(F)cc2)c2ccc(F)cc2)CC1 (centres undefined)"
  result unit: "µM"
  test value: 0.691

Hey, just so you know, these numbers are from ChEMBL document CHEMBL4706586.
